- target_or_test_system: SERCA2a (Sus scrofa, UniProt P11607)
- Construct: Cardiac SR vesicles were isolated from fresh porcine left ventricular tissue using differential centrifugation; from tissue; host or cells: porcine left ventricular tissue (cardiac SR vesicles)
- Sequence (P11607 1-997 isoform P11607-2): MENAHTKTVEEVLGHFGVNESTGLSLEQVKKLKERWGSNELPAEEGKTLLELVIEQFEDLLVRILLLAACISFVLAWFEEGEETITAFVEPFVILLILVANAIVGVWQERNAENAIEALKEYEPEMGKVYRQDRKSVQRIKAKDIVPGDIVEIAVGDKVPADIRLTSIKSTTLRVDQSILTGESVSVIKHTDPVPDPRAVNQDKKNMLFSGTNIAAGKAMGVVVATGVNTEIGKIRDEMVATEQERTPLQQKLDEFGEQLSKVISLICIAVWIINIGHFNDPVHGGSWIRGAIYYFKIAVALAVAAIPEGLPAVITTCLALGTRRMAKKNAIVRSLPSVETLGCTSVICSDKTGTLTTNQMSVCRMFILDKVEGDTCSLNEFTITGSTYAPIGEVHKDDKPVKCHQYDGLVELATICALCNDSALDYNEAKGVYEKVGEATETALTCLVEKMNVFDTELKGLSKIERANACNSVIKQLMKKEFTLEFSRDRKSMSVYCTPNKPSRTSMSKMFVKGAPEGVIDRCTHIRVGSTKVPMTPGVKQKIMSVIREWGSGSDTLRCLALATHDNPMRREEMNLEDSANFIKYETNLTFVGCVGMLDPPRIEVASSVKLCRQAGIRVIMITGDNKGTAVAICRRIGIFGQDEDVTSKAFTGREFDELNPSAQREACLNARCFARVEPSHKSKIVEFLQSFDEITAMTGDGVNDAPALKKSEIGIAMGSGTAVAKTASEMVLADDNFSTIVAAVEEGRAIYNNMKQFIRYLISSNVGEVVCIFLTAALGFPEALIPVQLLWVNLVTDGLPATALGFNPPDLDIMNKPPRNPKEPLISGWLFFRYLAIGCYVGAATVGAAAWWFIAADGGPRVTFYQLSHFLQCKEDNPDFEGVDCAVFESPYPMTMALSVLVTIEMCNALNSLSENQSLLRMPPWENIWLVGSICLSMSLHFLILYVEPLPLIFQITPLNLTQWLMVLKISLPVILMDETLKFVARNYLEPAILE
- procedure_summary: Oxalate-supported Fluo-4 Ca2+-uptake (Ca2+-transport) assay in pig cardiac SR (pCSR) vesicles
- Type: biochemical
- applied_conditions: maximum Ca2+-uptake rate / Ca2+-ATPase rate at [Ca2+]MAX; DMSO control = 0.66
- Method: Cardiac SR vesicles were isolated from fresh porcine left ventricular tissue using differential centrifugation of the homogenized tissue as previously described. The SR vesicles were flash-frozen and stored at − 80 °C until needed. […] SERCA2a activity, F (rate of ATP hydrolysis or Ca^2+ uptake), was measured at varying pCa and varying compound concentration. […]
// boundary case: CR (coupling ratio) VU/VA equal to 0.4 maps to NO; strictly smaller maps to YES

CR (coupling ratio) VU/VA under 0.4? Item: CCc1cnc(N2CC[C@@H](c3ccc4ccccc4c3)[C@H](O)C2)nc1 (relative stereo) [Compound 16] YES

---

- target_or_test_system: SERCA2a (Sus scrofa, UniProt P11607)
- Construct: Cardiac SR vesicles were isolated from fresh porcine left ventricular tissue using differential centrifugation; from tissue; host or cells: porcine left ventricular tissue (cardiac SR vesicles)
- procedure_summary: Oxalate-supported Fluo-4 Ca2+-uptake (Ca2+-transport) assay in pig cardiac SR (pCSR) vesicles
- Format: biochemical
- applied_conditions: activators, categories activate / uncouple / inhibit
quantity_measured: Effect on Ca2+-uptake (category, Fig. 4A)

1. O=C(c1ccc(-c2ccc(O)cc2)nc1)N1CCC(CCc2ccccc2)CC1: inhibit
2. COc1ccc(Cc2noc(CN3CCN(c4nc5ccccc5s4)CC3)n2)cc1OC: inhibit

---

- target_or_test_system: SERCA2a (Sus scrofa, UniProt P11607)
- Construct: Cardiac SR vesicles were isolated from fresh porcine left ventricular tissue using differential centrifugation; from tissue; host or cells: porcine left ventricular tissue (cardiac SR vesicles)
- procedure_summary: Oxalate-supported Fluo-4 Ca2+-uptake (Ca2+-transport) assay in pig cardiac SR (pCSR) vesicles
- Assay type: biochemical
- applied_conditions: maximum Ca2+-uptake rate / Ca2+-ATPase rate at [Ca2+]MAX; DMSO control = 0.66
Under this convention, t denotes CR (coupling ratio) VU/VA strictly below 0.4 and f denotes CR (coupling ratio) VU/VA at or above 0.4.

Some solved entries appear below for comparison.
1. c1ccc(-c2cc(CN3CCN(c4ncnc5ccccc45)CC3)on2)cc1 [Compound 4]: f
2. CCc1ccc(S(=O)(=O)N2CCCC(C(=O)c3sccc3C)C2)cc1 (stereo not drawn) [Compound 14]: t
3. COC(=O)CSc1ncc(-c2ccc(F)cc2)c(C2CCCN(C(=O)c3cccc(F)c3)C2)n1 (stereo not drawn) [Compound 11]: t

Consider now this further compound.
Determine if O=C(c1cc(COc2ccc3ncccc3c2)on1)N1CCC(c2ccncc2)CC1 [Compound 2] shows CR (coupling ratio) VU/VA strictly lower than 0.4. f

Attribution: paper PMC10314922
